- procedure summary: Toxicokinetics in dogs after intra-articular injection: synovial fluid concentrations
- Format: in vivo, Beagle dogs
- assay setup: Beagle, dog, synovial fluid; 75 mg/animal; Male; Study Day 1; read-out: Synovia Cmax
- Method: 16 Beagle dogs (8 males, 8 females) were assigned to four treatment groups to determine toxicity of BETi1 formulations following intra-articular injection. […] Quantification of BETi1 concentrations in plasma and synovial fluid was performed using a qualified liquid chromatographic triple quadrupole mass spectrometric (LC-MS/MS) method. […]
measure: Cmax (ng/mL)
Output spec: scalar in ng/mL, unitless text.

Record Cn1cc(-c2cccc(O)c2Oc2ccccc2)c2cc[nH]c2c1=O , field Cmax: 47600

---

- procedure summary: Toxicokinetics in dogs after intra-articular injection: plasma concentrations
- Format: in vivo, Beagle dogs
- assay setup: Beagle, dog, plasma; 7.5 mg/animal; Female; Study Day 1; read-out: Plasma Cmax
measure: Cmax (ng/mL)
Output spec: scalar in ng/mL, unitless text.

Record Cn1cc(-c2cccc(O)c2Oc2ccccc2)c2cc[nH]c2c1=O , field Cmax: 37.6

---

- procedure summary: Solubility of BETi1 in water (HPLC) and in solvents (visual observation)
- Assay type: physicochemical
- assay setup: organic solvent or mixture, thermodynamic from solid; IPAc; 25° C.; visual observation; read-out: Approximate solubility
measure: solubility

Record Cn1cc(-c2cccc(O)c2Oc2ccccc2)c2cc[nH]c2c1=O [BETi1] , field solubility: < 5000 µg/mL

---

- procedure summary: Toxicokinetics in dogs after intra-articular injection: plasma concentrations
- Assay type: in vivo, Beagle dogs
- assay setup: both sexes, Beagle, dog, plasma, other: intra-articular injection, 150 mg/animal; 150 mg intra-articular; 4 h; read-out: Plasma concentration of BETi1
measure: concentration at 4 h (ng/mL)
Output spec: scalar in ng/mL, unitless text.

Record Cn1cc(-c2cccc(O)c2Oc2ccccc2)c2cc[nH]c2c1=O , field concentration at 4 h: 35.8

---

- Tested on: anti collagen antibodies induced arthritis (ACAIA)
- procedure summary: Anti collagen antibodies induced arthritis (ACAIA) in mice, intra-articular treatment: paw thickness, arthritis clinical score, body weight
- assay setup: BETi1 0.1 mg/kg IA (Group 4); Av
measure: Weight per day, Day 3
Answer format: number, then unit.

Record Cn1cc(-c2cccc(O)c2Oc2ccccc2)c2cc[nH]c2c1=O , field Weight per day, Day 3: 20.6 g

---

- procedure summary: Toxicokinetics in dogs after intra-articular injection: synovial fluid concentrations
- Type: in vivo, Beagle dogs
- assay setup: Beagle, dog, synovial fluid; 150 mg/animal; Female; Study Day 1; read-out: Synovia Cmax
measure: Cmax (ng/mL)
Output spec: scalar in ng/mL, unitless text.

Record Cn1cc(-c2cccc(O)c2Oc2ccccc2)c2cc[nH]c2c1=O , field Cmax: 46100

---

- Tested on: anti collagen antibodies induced arthritis (ACAIA)
- procedure summary: Anti collagen antibodies induced arthritis (ACAIA) in mice, intra-articular treatment: paw thickness, arthritis clinical score, body weight
- assay setup: BETi1 0.1 mg/kg IA (Group 4); Av
measure: Weight per day, Day 5 (g)
Output spec: scalar in g, unitless text.

Entry Cn1cc(-c2cccc(O)c2Oc2ccccc2)c2cc[nH]c2c1=O [BETi1] ; assay system anti collagen antibodies induced arthritis (ACAIA); Weight per day, Day 5 recorded at 18.6

---

- procedure summary: Toxicokinetics in dogs after intra-articular injection: plasma concentrations
- Assay type: in vivo, Beagle dogs
- assay setup: both sexes, Beagle, dog, plasma, other: intra-articular injection, 150 mg/animal; 150 mg intra-articular; 336 h; read-out: Plasma concentration of BETi1
measure: concentration at 336 h

Record Cn1cc(-c2cccc(O)c2Oc2ccccc2)c2cc[nH]c2c1=O , field concentration at 336 h: 4.72 ng/mL

---

- procedure summary: Toxicokinetics in dogs after intra-articular injection: plasma concentrations
- Format: in vivo, Beagle dogs
- assay setup: both sexes, Beagle, dog, plasma, other: intra-articular injection, 150 mg/animal; 150 mg intra-articular; 2 h; read-out: Plasma concentration of BETi1
measure: concentration at 2 h (ng/mL)
Output spec: scalar in ng/mL, unitless text.

Record Cn1cc(-c2cccc(O)c2Oc2ccccc2)c2cc[nH]c2c1=O , field concentration at 2 h: 48.8

---

- procedure summary: Toxicokinetics in dogs after intra-articular injection: plasma concentrations
- Format: in vivo, Beagle dogs
- assay setup: Beagle, dog, plasma; 7.5 mg/animal; Female; Study Day 1; read-out: Plasma Tmax
measure: Tmax (h)
Output spec: scalar in h, unitless text.

Record Cn1cc(-c2cccc(O)c2Oc2ccccc2)c2cc[nH]c2c1=O , field Tmax: 1.5

---

- procedure summary: Toxicokinetics in dogs after intra-articular injection: plasma concentrations
- Assay type: in vivo, Beagle dogs
- assay setup: Beagle, dog, plasma; 75 mg/animal; Male; Study Day 1; read-out: Plasma Tmax
measure: Tmax (h)
Output spec: scalar in h, unitless text.

Record Cn1cc(-c2cccc(O)c2Oc2ccccc2)c2cc[nH]c2c1=O , field Tmax: 2

---

- procedure summary: Solubility of BETi1 in water (HPLC) and in solvents (visual observation)
- Type: physicochemical
- assay setup: organic solvent or mixture, thermodynamic from solid; 1,4-Dioxane; 25° C.; visual observation; read-out: Approximate solubility
measure: solubility (mg/mL)
Output spec: scalar in mg/mL, unitless text.

Record Cn1cc(-c2cccc(O)c2Oc2ccccc2)c2cc[nH]c2c1=O [BETi1] , field solubility: 104

---

- System: anti collagen antibodies induced arthritis (ACAIA)
- procedure summary: Anti collagen antibodies induced arthritis (ACAIA) in mice, intra-articular treatment: paw thickness, arthritis clinical score, body weight
- assay setup: Dexamethasone 1 mg/kg IP (Group 6); Av
measure: Weight per day, Day 8 (g)
Output spec: scalar in g, unitless text.

Record C[C@@H]1C[C@H]2[C@@H]3CCC4=CC(=O)C=C[C@]4(C)[C@@]3(F)[C@@H](O)C[C@]2(C)[C@@]1(O)C(=O)CO [dexamethasone, Dexamethasone, reference compound] , field Weight per day, Day 8: 18.2

---

- Tested on: anti collagen antibodies induced arthritis (ACAIA)
- procedure summary: Anti collagen antibodies induced arthritis (ACAIA) in mice, intra-articular treatment: paw thickness, arthritis clinical score, body weight
- assay setup: Dexamethasone 1 mg/kg IP (Group 6); Av
measure: Weight per day, Day 4 (g)
Output spec: scalar in g, unitless text.

Entry C[C@@H]1C[C@H]2[C@@H]3CCC4=CC(=O)C=C[C@]4(C)[C@@]3(F)[C@@H](O)C[C@]2(C)[C@@]1(O)C(=O)CO [dexamethasone, Dexamethasone, reference compound] ; assay system anti collagen antibodies induced arthritis (ACAIA); Weight per day, Day 4 recorded at 19.8

---

- System: anti collagen antibodies induced arthritis (ACAIA)
- procedure summary: Anti collagen antibodies induced arthritis (ACAIA) in mice, intra-articular treatment: paw thickness, arthritis clinical score, body weight
- assay setup: BETi1 0.01 mg/kg IA (Group 5); Av
measure: Weight per day, Day 6 (g)
Output spec: scalar in g, unitless text.

Record Cn1cc(-c2cccc(O)c2Oc2ccccc2)c2cc[nH]c2c1=O , field Weight per day, Day 6: 18.1

---

- System: anti collagen antibodies induced arthritis (ACAIA)
- procedure summary: Anti collagen antibodies induced arthritis (ACAIA) in mice, intra-articular treatment: paw thickness, arthritis clinical score, body weight;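 note: mouse arthritis induced by IV anti-collagen mAb on day 0 plus IP LPS on day 4, with body weight, caliper paw thickness and 0-4 paw score tracked against a day 0 baseline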
- assay setup: BETi1 1 mg/kg IA (Group 3); Av
measure: Weight per day, Day 10 (g)
Output spec: scalar in g, unitless text.

Record Cn1cc(-c2cccc(O)c2Oc2ccccc2)c2cc[nH]c2c1=O , field Weight per day, Day 10: 19.3

---

- procedure summary: Toxicokinetics in dogs after intra-articular injection: synovial fluid concentrations
- Type: in vivo, Beagle dogs
- assay setup: Beagle, dog, synovial fluid; 150 mg/animal; Male; Study Day 1; read-out: Synovia Cmax
measure: Cmax (µg/mL)
Output spec: scalar in µg/mL, unitless text.

Record Cn1cc(-c2cccc(O)c2Oc2ccccc2)c2cc[nH]c2c1=O , field Cmax: 63.2

---

- procedure summary: Toxicokinetics in dogs after intra-articular injection: synovial fluid concentrations
- Type: in vivo, Beagle dogs
- assay setup: Beagle, dog, synovial fluid; 75 mg/animal; Female; Study Day 1; read-out: Synovia Tmax
measure: Tmax (h)
Output spec: scalar in h, unitless text.

Record Cn1cc(-c2cccc(O)c2Oc2ccccc2)c2cc[nH]c2c1=O , field Tmax: 120

---

- procedure summary: Toxicokinetics in dogs after intra-articular injection: synovial fluid concentrations
- Assay type: in vivo, Beagle dogs
- assay setup: both sexes, Beagle, synovial fluid; dog, intra-articular, highest dose (150 mg); read-out: Cmax, synovial fluid
measure: Cmax
Answer format: number, then unit.

Record Cn1cc(-c2cccc(O)c2Oc2ccccc2)c2cc[nH]c2c1=O , field Cmax: 50 µg/mL

---

- procedure summary: Solubility of BETi1 in water (HPLC) and in solvents (visual observation)
- Type: physicochemical
- assay setup: organic solvent or mixture, thermodynamic from solid; Tetrahydrofuran; 25° C.; visual observation; read-out: Approximate solubility
measure: solubility (mg/mL)
Output spec: scalar in mg/mL, unitless text.

Record Cn1cc(-c2cccc(O)c2Oc2ccccc2)c2cc[nH]c2c1=O , field solubility: 104
